- TARGET UNDER TEST: CRAC channel (Rattus norvegicus)
- Sequence (Q5M848 whole entry): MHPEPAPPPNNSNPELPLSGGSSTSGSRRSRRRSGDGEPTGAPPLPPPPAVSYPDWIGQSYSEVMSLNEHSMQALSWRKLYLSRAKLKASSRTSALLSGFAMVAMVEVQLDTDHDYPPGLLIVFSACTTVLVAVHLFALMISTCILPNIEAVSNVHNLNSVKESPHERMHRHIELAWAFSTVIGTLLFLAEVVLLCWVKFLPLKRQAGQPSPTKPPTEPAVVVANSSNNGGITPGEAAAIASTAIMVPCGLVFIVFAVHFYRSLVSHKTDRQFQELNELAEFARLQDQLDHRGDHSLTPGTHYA
- METHOD NOTES: Inhibition of Ca2+ influx in thapsigargin-activated RBL-2H3 mast cells
- Type: cell-based, rodent
pIC50: −log10 of the molar value.
RECORDED ENDPOINT: pIC50

>  <COMPOUND>
Cc1nnsc1C(=O)Nc1nn(Cc2ccc(Cl)cc2Cl)c2ccccc12 [Compound 9e]

>  <pIC50>
< 4.52

$$$$

response.value for O=C(Nc1ccccc1F)c1nn(Cc2ccc(Cl)cc2Cl)c2ccccc12 [Compound 12c] (field: pIC50) = < 4.52
